- PROTOCOL_NOTES: Elimination half life in Sprague-Dawley rat at 3 mg/kg, po by LC-MS analysis
- Assay type: ADME, organism-based
- TEST_CONTEXT: in vivo, read-out: beta t1/2 (converted)
MEASURED_METRIC: half-life (h)

compound="COc1ccc(NC(=O)c2ccc(C(=N)N(C)C)cc2)c(C(=O)Nc2ccc(Cl)cn2)c1 [BETRIXABAN]" measured_metric=half-life endpoint_result=8.6
compound=COc1ccc(NC(=O)c2nc3c(s2)CN(C)CC3)c(C(=O)Nc2ccc(Cl)cn2)c1 measured_metric=half-life endpoint_result=9.6

====

- TARGET_SYSTEM: UniProtKB P00734
- PROTOCOL_NOTES: Inhibition of human recombinant thrombin expressed in HEK293 cells using S-2238 as substrate preincubated for 30 mins followed by substrate addition and measured for 20 mins
MEASURED_METRIC: IC50 (µM)

a = COc1ccc(NC(=O)c2ccc(C(=N)N(C)C)cc2)c(C(=O)Nc2ccc(Cl)cn2)c1 [BETRIXABAN]
b = COc1ccc(NC(=O)c2nc3c(s2)CN(C)CC3)c(C(=O)Nc2ccc(C)cn2)c1
c = COc1ccc(NC(=O)c2nc3c(s2)CN(C)CC3)c(C(=O)Nc2ccc(Cl)cn2)c1
d = COc1ccc(NC(=O)c2nc3c(s2)CN(C)CC3)c(C(=O)Nc2ccc(Cl)cc2)c1
QUERY: Ascending by IC50, please. Record the ranking as a list of labels in the requested order.
RESULT: c, d, a, b
(c: 4.2 µM, d: 7.1 µM, a: 18 µM, b: 32 µM)
